- Target Entity: GPx4 embedded in a mmRM (membrane-bound GPx4) (Homo sapiens, UniProt P36969, U73G)
- Construct: Truncated U46G-GPx4 with a TEV cleavable poly-histidine tag was inserted into vector; poly-histidine tag with TEV cleavage site; host or cells: BL21 (DE3) E. coli
- Sequence (P36969 1-170 isoform P36969-2 U46G): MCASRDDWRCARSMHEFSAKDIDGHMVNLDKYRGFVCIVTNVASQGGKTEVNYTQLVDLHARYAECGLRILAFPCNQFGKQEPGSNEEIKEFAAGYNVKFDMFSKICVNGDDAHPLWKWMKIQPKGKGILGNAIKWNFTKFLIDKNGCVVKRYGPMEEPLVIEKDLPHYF
- Method: NMR (15N-HSQC) titration of fragments against GPx4 embedded in DLPC/DPC mmRM, apparent Kd
- Type: binding
- Applied Conditions: Table 2, analogues of fragment 5; GPx4 in mmRM; ± standard error of global Kd fit; read-out: Apparent Kd
Please use met for Kd under 40 µM and not met for everything else, ties included.

IN: Given the entry Cc1cccc(-c2cc(O)cc3sc(=O)oc23)c1 [Analog 5.2] , would its reported Kd be below 40 µM?
OUT: not met

IN: Given the entry O=c1oc2ccc(O)cc2s1 [Fragment 5, 5-hydroxy-1,3-benzoxathiol-2-one] , would its reported Kd be below 40 µM?
OUT: not met

IN: Given the entry O=c1oc2c(-c3ccccc3Cl)cc(O)cc2s1 [Analog 5.3] , would its reported Kd be below 40 µM?
OUT: not met

IN: Given the entry O=c1oc2c(-c3cccc(Cl)c3)cc(O)cc2s1 [Analog 5.6] , would its reported Kd be below 40 µM?
OUT: met

IN: Given the entry Cc1ccc(-c2cc(O)cc3sc(=O)oc23)cc1Cl [Analog 5.7] , would its reported Kd be below 40 µM?
OUT: met

IN: Given the entry O=c1oc2c(-c3ccccc3)cc(O)cc2s1 [Analog 5.1] , would its reported Kd be below 40 µM?
OUT: not met

These entries and their values trace back to paper PMC11267533.
